# System name: Human Fc (human)
# Measurement notes: ELISA, negative control
Observation type: optical density (OD)

>>> observed_measurement("368_E01 (antibody, V domains shown) VH: EVQLLESGGGLVQPGGSLRLSCAASGFTFSSYSMNWVRQAPGKGLEWVASINYNSGYTGYADSVKGRFTISRDNSKNTLYLQMNSLRAEDTAVYYCARSANWHDTHLDYWGQGTLVTVSS VL: DIQMTQSPSSLSASVGDRVTITCRASQSILSYLNWYQQKPGKAPKLLIYAVTSRHSGVPSRFSGSGSGTDFTLTISSLQPEDFATYYCQQSYSLPLTFGGGTKVEIK")
0.392
>>> observed_measurement("369_G11 (antibody, V domains shown) VH: EVQLLESGGGLVQPGGSLRLSCAASGFTFSSYSMNWVRQAPGKGLEWVANINYNSGYKGYADSVKGRFTISRDNSKNTLYLQMNSLRAEDTAVYYCARSANWHDTALDYWGQGTLVTVSS VL: DIQMTQSPSSLSASVGDRVTITCRASQSILTYLNWYQQKPGKAPKLLIYAATSLASGVPSRFSGSGSGTDFTLTISSLQPEDFATYYCQQSYESPLTFGGGTKVEIK")
0.331
>>> observed_measurement("367_F03 (antibody, V domains shown) VH: EVQLLESGGGLVQPGGSLRLSCAASGFTFSSYSMNWVRQAPGKGLEWVAGINYNSGYKSYADSVKGRFTISRDNSKNTLYLQMNSLRAEDTAVYYCARSANWHDTALDYWGQGTLVTVSS VL: DIQMTQSPSSLSASVGDRVTITCRASQSILSYVNWYQQKPGKAPKLVIYAATSLASGVPSRFSGSGSGTDFTLTISSLQPEDFATYYCQQSDDTPLTFGGGTKVEIK")
0.301
>>> observed_measurement("367_E01 (antibody, V domains shown) VH: EVQLLESGGGLVQPGGSLRLSCAASGFTFSSYGMNWVRQAPGKGLEWVAGINYNGGYKSYADSVKGRFTISRDNSKNTLYLQMNSLRAEDTAVYYCARSANWHDTALDYWGQGTLVTVSS VL: DIQMTQSPSSLSASVGDRVTITCRASQSILSYVNWYQQKPGKAPKLLIYATTSRASGVPSRFSGSGSGTDFTLTISSLQPEDFATYYCQQSYDLPLTFGGGTKVEIK")
0.351
>>> observed_measurement("373_D05 (antibody, V domains shown) VH: EVQLLESGGGLVQPGGSLRLSCAASGFTFSSYSMNWVRQAPGKGLEWVSGINYNSGYKGYADSVKGRFTISRDNSKNTLYLQMNSLRAEDTAVYYCARSANWHDTALDYWGQGTLVTVSS VL: DIQMTQSPSSLSASVGDRVTITCRASQSILSYLNWYQQKPGKAPKLVIYAATSRASGVPSRFSGSGSGTDFTLTISSLQPEDFATYYCQQSYDSPLTFGGGTKVEIK")
0.179
>>> observed_measurement("372_A04 (antibody, V domains shown) VH: EVQLLESGGGLVQPGGSLRLSCAASGFTFDSYSMNWVRQAPGKGLEWVSGINYNSGYTSYADSVKGRFTISRDNSKNTLYLQMNSLRAEDTAVYYCARSANWHDTALDYWGQGTLVTVSS VL: DIQMTQSPSSLSASVGDRVTITCRASQSILTYLNWYQQKPGKAPKLVIYAATSRASGVPSRFSGSGSGTDFTLTISSLQPEDFATYYCQQSYETPLTFGGGTKVEIK")
0.339
>>> observed_measurement("373_B04 (antibody, V domains shown) VH: EVQLLESGGGLVQPGGSLRLSCAASGFTFSSYGMNWVRQAPGKGLEWVAGINYNSGYKGYADSVKGRFTISRDNSKNTLYLQMNSLRAEDTAVYYCARSANWHDTALDYWGQGTLVTVSS VL: DIQMTQSPSSLSASVGDRVTITCRASQSILTYLNWYQQKPGKAPKLLIYAATSRASGVPSRFSGSGSGTDFTLTISSLQPEDFATYYCQQSYETPLTFGGGTKVEIK")
0.176
>>> observed_measurement("369_H09 (antibody, V domains shown) VH: EVQLLESGGGLVQPGGSLRLSCAASGFTFDDYSMNWVRQAPGKGLEWVSGINYNGGYTSYADSVKGRFTISRDNSKNTLYLQMNSLRAEDTAVYYCARSANWHDTALDYWGQGTLVTVSS VL: DIQMTQSPSSLSASVGDRVTITCRASQSILSYVNWYQQKPGKAPKLLIYAVTSLASGVPSRFSGSGSGTDFTLTISSLQPEDFATYYCQQSYESPLTFGGGTKVEIK")
0.365
>>> observed_measurement("371_F01 (antibody, V domains shown) VH: EVQLLESGGGLVQPGGSLRLSCAASGFTFSSYSMNWVRQAPGKGLEWVAGINYNGGYTGYADSVKGRFTISRDNSKNTLYLQMNSLRAEDTAVYYCARSANWHDTALDYWGQGTLVTVSS VL: DIQMTQSPSSLSASVGDRVTITCRASQSILTYVNWYQQKPGKAPKLVIYAATSLASGVPSRFSGSGSGTDFTLTISSLQPEDFATYYCQQSYNNPLTFGGGTKVEIK")
0.41
>>> observed_measurement("370_G11 (antibody, V domains shown) VH: EVQLLESGGGLVQPGGSLRLSCAASGFTFSSYSMNWVRQAPGKGLEWVASINYNSGYTSYADSVKGRFTISRDNSKNTLYLQMNSLRAEDTAVYYCARSANWHDTHLDYWGQGTLVTVSS VL: DIQMTQSPSSLSASVGDRVTITCRASQSIVSYLNWYQQKPGKAPKLVIYAATSRASGVPSRFSGSGSGTDFTLTISSLQPEDFATYYCQQSYSLPLTFGGGTKVEIK")
0.529

Data provenance is patent US20210380703A1.
